Recorded values, source patent US20260049072A1.

molecular target: RAS G12D (Homo sapiens, UniProt P01116, G12D); construct: host or cells: AsPC-1 human pancreatic cancer cells; experiment: RAS G12D degradation activity, Cell ELISA, AsPC-1; format: cell-based; conditions: AsPC-1 cells, 24 hours; read-out: DC50 (RAS G12D 50% degradation value)
Sequence (P01116 1-188 isoform P01116-2 G12D): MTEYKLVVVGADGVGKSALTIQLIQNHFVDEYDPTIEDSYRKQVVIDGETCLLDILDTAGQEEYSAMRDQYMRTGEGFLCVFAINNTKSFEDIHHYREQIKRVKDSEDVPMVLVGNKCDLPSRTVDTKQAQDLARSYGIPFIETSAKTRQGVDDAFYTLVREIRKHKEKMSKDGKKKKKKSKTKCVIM
In this section we review reported DC50 values for a set of compounds.
Answer with a number only, understood to be in µM.

| compound | unitsOfMeasure | observed |
| --- | --- | --- |
| CO[C@@H](C)COc1nc(NC2CN(C(=O)O[C@H]3C[C@@H](N(C)C)C3)C2)c2cc(C3CC3)c(-c3c(C)c(F)cc4[nH]ncc34)c(OCc3ccc(-c4cn([C@H](C(=O)N5C[C@H](O)C[C@H]5C(=O)N[C@@H](CO)c5ccc(-c6ocnc6C)cc5)C(C)C)nn4)cc3)c2n1 (atropisomer, axis not shown; (M)) [Example 1] | µM | 0.005 |
| CNCCNC(=O)N1CC(Oc2nc(OC[C@H](C)OC)nc3c(OCc4ccc(-c5cn([C@H](C(=O)N6C[C@H](O)C[C@H]6C(=O)N[C@@H](CO)c6ccc(-c7scnc7C)cc6)C(C)C)nn5)cc4)c(-c4c(C)c(F)cc5[nH]ncc45)c(C4CC4)cc23)C1 (atropisomer, axis not shown) [Example 18] | µM | 0.026 |

As a next step, examine the compound that follows.
Tell me the measured DC50 of Cc1ncsc1-c1ccc([C@H](CO)NC(=O)[C@@H]2C[C@@H](O)CN2C(=O)[C@H](C(C)C)n2cc(-c3ccc(COc4c(-c5c(C)c(F)cc6[nH]ncc56)c(C5CC5)cc5c(NCc6cccnc6)nc(OC6CCOCC6)nc45)cc3)nn2)cc1 [Example 29] , please.
0.021
